- SYSTEM_NAME: CdgA (Bd3125) (Bdellovibrio bacteriovorus)
- Construct: MBP fusion, expressed in and purified from E. coli; MBP kept; degenerate GVNEF motif is natural
- Sequence (Q6MIM9 1-496): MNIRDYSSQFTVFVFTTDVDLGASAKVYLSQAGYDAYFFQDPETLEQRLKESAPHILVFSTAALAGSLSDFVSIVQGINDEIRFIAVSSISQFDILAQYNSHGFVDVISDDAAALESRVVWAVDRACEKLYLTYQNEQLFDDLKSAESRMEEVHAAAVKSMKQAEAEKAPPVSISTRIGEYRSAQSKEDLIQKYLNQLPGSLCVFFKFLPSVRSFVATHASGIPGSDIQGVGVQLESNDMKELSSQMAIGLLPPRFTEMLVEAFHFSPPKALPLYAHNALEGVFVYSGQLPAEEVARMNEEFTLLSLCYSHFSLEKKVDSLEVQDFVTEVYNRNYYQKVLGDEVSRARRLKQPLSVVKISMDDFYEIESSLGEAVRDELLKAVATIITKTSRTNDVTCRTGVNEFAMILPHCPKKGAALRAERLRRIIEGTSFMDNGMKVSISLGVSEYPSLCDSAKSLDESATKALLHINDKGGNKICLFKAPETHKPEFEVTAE
- PROCEDURE_TEXT: equilibrium dialysis
- RUN_CONDITIONS: read-out: apparent Kd
REPORTED_METRIC: Kd

Lookup: Looking for the measured Kd of Nc1nc2c(ncn2[C@@H]2O[C@@H]3COP(=O)(O)O[C@H]4[C@@H](O)[C@H](n5cnc6c(=O)[nH]c(N)nc65)O[C@@H]4COP(=O)(O)O[C@H]3[C@H]2O)c(=O)[nH]1 , can you help?
Found: ~2 µM
